- tgt: T1, HLA-A*01:01 (human)
- T1 construct: MHC class I monomer first loaded with a UV-sensitive peptide (not identified) that is cleaved by UV irradiation and exchanged for the tested peptide; captured on streptavidin plates, detected with anti-β2m; also called peptide-receptive MHC molecules
- assay.protocol: UV-ligand exchange, anti-b2m ELISA
// reported peptide exchange yield per item
property.label: peptide exchange yield

binder	result
ETILVSSSY	20 to 50%
YPDLSELLM	20 to 50%
MTEGSTVNTEY	> 75%
TQKSVQVLAY	20 to 50%
GVGFTELEY	50 to 75%
TVDNANILL	20 to 50%
HMLAAMAY	20 to 50%
LTEGHSGNY	> 75%
ELCPLPGTSAY	20 to 50%
FTTLSDLQTNMA	20 to 50%
YTSHEDIGY	> 75%
EDDEDEDLY	50 to 75%
NKEINYFMY	50 to 75%
VTDGTHTDFY	50 to 75%
YLENSASWY	> 75%
FGTTPAAEYF	20 to 50%
